CC50 overview
experiment: in vitro; settings: dog
MEASUREMENT_KIND: CC50

{"columns": ["COMPOUND", "RECORDED_MEASUREMENT"],
 "data": [
  ["CC(C)(C)NCC(O)c1cc(Cl)c(N)c(Cl)c1 (centres unmarked)", "> 900 µM"],
  ["CC(Cc1ccc(O)cc1)NCC(O)c1cc(O)cc(O)c1 (centres unmarked)", "> 900 µM"]
]}

---

experiment: in vitro; conditions: dog

{"columns": ["MOLECULE", "CC50 at 3 days"],
 "data": [
  ["CCC(CC)O[C@@H]1C=C(C(=O)O)C[C@H](N)[C@H]1NC(C)=O [OSV-C, oseltamivir carboxylate]", "> 900 µM"]
]}

---

assay: Cytotoxicity to mock-infected MDCK cells (MTT); settings: dog
Where a name gives a salt, the structure may show the parent alone.
MEASUREMENT_KIND: CC50 at 3 days

{"columns": ["MOLECULE", "RECORDED_MEASUREMENT"],
 "data": [
  ["CN(C)C(=O)Oc1cc(OC(=O)N(C)C)cc(C(O)CNC(C)(C)C)c1 (centres unmarked) [Bambuterol, bambuterol]", "> 900 µM"],
  ["CC(CCc1ccccc1)NC(C)C(O)c1ccc(O)cc1 (centres unmarked) [Nylidrin, nylidrin]", "549 µM"],
  ["NC(=O)c1ncn([C@@H]2O[C@H](CO)[C@@H](O)[C@H]2O)n1 [RBV, ribavirin]", "> 900 µM"],
  ["NC12CC3CC(CC(C3)C1)C2 [AMT, amantadine hydrochloride]", "> 900 µM"],
  ["CC(C(O)c1ccc(O)cc1)N1CCC(Cc2ccccc2)CC1 (centres unmarked) [Ifenprodil, ifenprodil]", "488 µM"]
]}

---

system: A/Brisbane/59/2007 (H1N1); test: microbe, parasite or virus in culture; conditions: Influenza A virus, H1N1, MDCK, 72 h, read-out: EC50 against A/Brisbane/59/2007 (H1N1)
pEC50: −log10 of the molar value. Where a name gives a salt, the structure may show the parent alone.
Values of pEC50 greater than or equal to 5 map to satisfied; values below map to not satisfied.

{"columns": ["COMPOUND", "MEASUREMENT_TARGET", "ASSIGNED_CATEGORY"],
 "data": [
  ["CC(CCc1ccccc1)NC(C)C(O)c1ccc(O)cc1 (centres unmarked) [Nylidrin, nylidrin]", "A/Brisbane/59/2007 (H1N1)", "satisfied"],
  ["CCC(CC)O[C@@H]1C=C(C(=O)O)C[C@H](N)[C@H]1NC(C)=O [OSV-C, oseltamivir carboxylate]", "A/Brisbane/59/2007 (H1N1)", "satisfied"],
  ["NC12CC3CC(CC(C3)C1)C2 [AMT, amantadine hydrochloride]", "A/Brisbane/59/2007 (H1N1)", "satisfied"],
  ["OC(CN1CCC(Cc2ccc(F)cc2)CC1)c1ccc(Cl)cc1 (centres unmarked) [Eliprodil, eliprodil]", "A/Brisbane/59/2007 (H1N1)", "not satisfied"],
  ["CC(C(O)c1ccc(O)cc1)N1CCC(Cc2ccccc2)CC1 (centres unmarked) [Ifenprodil, ifenprodil]", "A/Brisbane/59/2007 (H1N1)", "satisfied"],
  ["CC(CCc1ccccc1)NCC(O)c1ccc(O)c(C(N)=O)c1 (centres unmarked) [Labetalol, labetalol]", "A/Brisbane/59/2007 (H1N1)", "not satisfied"],
  ["NC(=O)c1ncn([C@@H]2O[C@H](CO)[C@@H](O)[C@H]2O)n1 [RBV, ribavirin]", "A/Brisbane/59/2007 (H1N1)", "not satisfied"]
]}

---

experiment: Cytotoxicity to mock-infected MDCK cells (MTT); conditions: dog
Entries and their CC50 at 3 days

{"columns": ["COMPOUND", "CC50 at 3 days"],
 "data": [
  ["CC(NCCc1ccc(O)cc1)C(O)c1ccc(O)cc1 (stereo not drawn)", "> 900 µM"],
  ["CC(CCc1ccccc1)NCC(O)c1ccc(O)c(C(N)=O)c1 (stereo not drawn)", "498 µM"],
  ["OC(CN1CCC(Cc2ccc(F)cc2)CC1)c1ccc(Cl)cc1 (stereo not drawn)", "> 900 µM"]
]}

---

tested on: B/Lee/40; assay: microbe, parasite or virus in culture; details: Influenza B virus, MDCK, 72 h, read-out: EC50 against B/Lee/40
Where a name gives a salt, the structure may show the parent alone.
MEASUREMENT_KIND: EC50

{"columns": ["COMPOUND", "MEASUREMENT_KIND", "RECORDED_MEASUREMENT"],
 "data": [
  ["CC(NCCc1ccc(O)cc1)C(O)c1ccc(O)cc1 (centres unmarked)", "EC50", "> 100 µM"],
  ["CCC(CC)O[C@@H]1C=C(C(=O)O)C[C@H](N)[C@H]1NC(C)=O [OSV-C, oseltamivir carboxylate]", "EC50", "0.8 µM"],
  ["OC(CN1CCC(Cc2ccc(F)cc2)CC1)c1ccc(Cl)cc1 (centres unmarked)", "EC50", "> 100 µM"],
  ["CC(CCc1ccccc1)NC(C)C(O)c1ccc(O)cc1 (centres unmarked)", "EC50", "> 100 µM"],
  ["NC(=O)c1ncn([C@@H]2O[C@H](CO)[C@@H](O)[C@H]2O)n1", "EC50", "13.8 µM"],
  ["NC12CC3CC(CC(C3)C1)C2 [AMT, amantadine hydrochloride]", "EC50", "> 100 µM"],
  ["CC(CCc1ccccc1)NCC(O)c1ccc(O)c(C(N)=O)c1 (centres unmarked)", "EC50", "> 100 µM"],
  ["CN(C)C(=O)Oc1cc(OC(=O)N(C)C)cc(C(O)CNC(C)(C)C)c1 (centres unmarked)", "EC50", "> 100 µM"],
  ["CC(C(O)c1ccc(O)cc1)N1CCC(Cc2ccccc2)CC1 (centres unmarked)", "EC50", "> 100 µM"],
  ["CC(Cc1ccc(O)cc1)NCC(O)c1cc(O)cc(O)c1 (centres unmarked)", "EC50", "> 100 µM"],
  ["CC(C)(C)NCC(O)c1cc(Cl)c(N)c(Cl)c1 (centres unmarked)", "EC50", "> 100 µM"]
]}
